biological target: Urease (Canavalia ensiformis, UniProt P07374)
Sequence (P07374 whole entry): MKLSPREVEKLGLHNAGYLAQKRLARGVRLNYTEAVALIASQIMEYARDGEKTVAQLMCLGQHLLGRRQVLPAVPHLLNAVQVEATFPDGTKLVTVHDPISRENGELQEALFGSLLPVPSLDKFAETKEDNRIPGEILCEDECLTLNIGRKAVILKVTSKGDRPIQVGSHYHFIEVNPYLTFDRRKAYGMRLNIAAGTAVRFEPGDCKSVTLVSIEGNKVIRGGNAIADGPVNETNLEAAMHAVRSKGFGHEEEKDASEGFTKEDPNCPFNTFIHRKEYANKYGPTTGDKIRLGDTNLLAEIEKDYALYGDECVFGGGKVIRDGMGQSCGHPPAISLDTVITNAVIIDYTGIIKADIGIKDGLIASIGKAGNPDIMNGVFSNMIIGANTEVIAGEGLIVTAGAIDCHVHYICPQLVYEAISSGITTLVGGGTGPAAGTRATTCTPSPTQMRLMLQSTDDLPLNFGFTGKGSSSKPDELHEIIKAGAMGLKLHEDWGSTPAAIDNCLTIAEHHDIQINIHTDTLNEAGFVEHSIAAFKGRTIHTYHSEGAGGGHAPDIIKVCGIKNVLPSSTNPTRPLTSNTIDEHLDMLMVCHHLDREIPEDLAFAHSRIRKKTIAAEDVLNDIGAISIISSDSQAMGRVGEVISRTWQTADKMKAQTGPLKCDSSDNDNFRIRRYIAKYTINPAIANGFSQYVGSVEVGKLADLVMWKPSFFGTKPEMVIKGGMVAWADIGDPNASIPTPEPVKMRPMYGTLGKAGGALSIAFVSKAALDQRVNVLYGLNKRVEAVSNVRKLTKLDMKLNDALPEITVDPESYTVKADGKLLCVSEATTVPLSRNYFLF
pIC50: −log10 of the molar value.
Values of pIC50 greater than or equal to 7 map to yes (1); values below map to no (0).

| CPD SMILES | LABEL VALUE |
| --- | --- |
| Cc1cs/c(=N\C(=O)c2ccccc2[N+](=O)[O-])n1-c1ccc(S(N)(=O)=O)cc1 | no (0) |

Turning now to a further compound:
Can Cc1cs/c(=N\C(=O)c2ccc([N+](=O)[O-])cc2Cl)n1-c1ccc(S(N)(=O)=O)cc1 be said to have pIC50 at or above 7?
yes (1)

----------
biological target: Urease (Canavalia ensiformis); test: Urease Inhibition Assay; details: pH 8.2
We label by threshold. Values of IC50 strictly beneath 80 nM are fulfilled. Values of 80 nM and up are not fulfilled.

| CPD SMILES | TARGET | LABEL VALUE |
| --- | --- | --- |
| Cc1ccc(C(=O)/N=c2\scc(C)n2-c2ccc(S(N)(=O)=O)cc2)cc1 | Urease (Canavalia ensiformis) | fulfilled |

Check if IC50 falls below 80 nM for Cc1cccc(C(=O)/N=c2\scc(C)n2-c2ccc(S(N)(=O)=O)cc2)c1 .
not fulfilled

Check if IC50 falls below 80 nM for Cc1cs/c(=N\C(=O)c2ccccc2)n1-c1ccc(S(N)(=O)=O)cc1 .
not fulfilled

Check if IC50 falls below 80 nM for Cc1cs/c(=N\C(=O)c2cccc(F)c2)n1-c1ccc(S(N)(=O)=O)cc1 .
fulfilled

Check if IC50 falls below 80 nM for Cc1cs/c(=N\C(=O)c2ccco2)n1-c1ccc(S(N)(=O)=O)cc1 .
not fulfilled

Check if IC50 falls below 80 nM for Cc1ccccc1C(=O)/N=c1\scc(C)n1-c1ccc(S(N)(=O)=O)cc1 .
not fulfilled

Check if IC50 falls below 80 nM for Cc1cs/c(=N\C(=O)c2ccc([N+](=O)[O-])cc2)n1-c1ccc(S(N)(=O)=O)cc1 .
not fulfilled
